system: SR; test: NCI tumour cell line growth inhibition, 48 h
Calls of active or inactive are those of the source. Cut-off read from the data, not from the text of the source: active = GI50 up to about 1.1 µM and inactive = higher.
Can you answer with just one of these options? active, inactive

Worked examples, 8 molecules total:
molecule	label.class
O=C1c2ccccc2C(=O)N1C/C=N/NS(=O)(=O)c1ccc2ccccc2c1	inactive
COc1ccc([C@H]2[C@H](C)C3=Nc4ccccc4CN32)cc1	inactive
COc1cc(Cc2cnc(N)nc2N)cc(OC)c1OCCCNc1ccc([N+](=O)[O-])cc1	inactive
CC(C)(C)C(=O)OCC1CCC[N+]2(C)CCCCC12 (stereo not drawn)	inactive
CC(C)C1C(=O)NC(CO)Cc2c[nH]c3c(C(c4c[nH]c5ccccc45)C(O)CO)ccc(c23)N1C (stereo not drawn)	inactive
CCO/C(Cc1ccc(Cl)cc1)=N/NC(N)=S	inactive
O=C1C[S+]([O-])C23c4cc5ccccc5n4CCC2CCCN13 (stereo not drawn)	inactive
C=C1CCC(O)C/C1=C/C=C1\CCCC2(C)C1CCC2C(C)CCCC(C)C (stereo not drawn)	inactive

Which outcome did this test record for the molecule CNC(=S)/N=c1/sc(NC)nc2sc3c(c12)CCCC3 ?
inactive

Which outcome did this test record for the molecule Cc1cc(C)nc(NC(=S)Nc2cccc(Cl)c2)c1 ?
inactive

Which outcome did this test record for the molecule CCC(N)(C(=O)O)C(C)C (stereo not drawn) ?
inactive

Which outcome did this test record for the molecule O=c1[nH]c(=O)n(C2OC(CO)C(O)C2O)c2ccsc12 (stereo not drawn) ?
inactive

Which outcome did this test record for the molecule CN(C)C(Cc1c[nH]cn1)C(=O)N1CCCC1C(N)=O (stereo not drawn) ?
inactive

Which outcome did this test record for the molecule O=C(O)c1nn[nH]c1S ?
inactive

Which outcome did this test record for the molecule SC1=Nc2ccccc2-c2nc(-c3cccc(Cl)c3)cc(-c3ccccc3)c2C1 ?
inactive

Which outcome did this test record for the molecule O=C1C=CC2(C=C1)C[C@H](NC(=O)OCc1ccccc1)C(=O)O2 ?
active

Which outcome did this test record for the molecule CC1=NC2(CCCCC2)N(Cl)C(=O)C1SC#N (stereo not drawn) ?
inactive

Which outcome did this test record for the molecule O=c1cc2n(c(=O)[nH]1)C1OC(C(O)C1O)[C@H]2CCO (stereo partly drawn) ?
inactive

Which outcome did this test record for the molecule CCOc1ccc(-n2nnc3c(N)nc(N)nc32)cc1 ?
inactive

Which outcome did this test record for the molecule COc1cc(S(=O)(=O)Nc2ccc(-c3csc(/N=C\c4cccc(Oc5ccccc5)c4)n3)cc2)ccc1Cl ?
inactive

Which outcome did this test record for the molecule Cc1nc2c(O)cc3c4c([nH]c3c2nc1C)C(=O)CCC4 ?
inactive

Which outcome did this test record for the molecule O=C(CCN1CCCCC1)c1csc2ccccc12 ?
inactive

Which outcome did this test record for the molecule CC(=O)OC[C@@H](OC(C)=O)[C@H](OC(C)=O)[C@@H]1OC(C)(C)O[C@@H]1C1SCCCS1 ?
inactive

###

test system: UACC-257; assay: NCI tumour cell line growth inhibition, 48 h
Activity calls are given as the source filed them. Rule as the data show it: active = GI50 up to about 1.1 µM and inactive = higher. Numbered stars: 1 amine (or outer) side, 2 acyl side, 3 side chain; on linkers, the order of the positions; unused ones are H or OH. Bridge positions count the residues as written; N and C are the ends. Square brackets hold non-standard residues; d marks the D form. Peptide text beside a SMILES is read from it. I, II: the chains in the order shown. Actinocin(9to1) = Cc1c2oc3c(C)ccc(C(=O)[*:1])c3nc-2c(C(=O)[*:2])c(N)c1=O; X48 = O=C1CC(C(=O)[*:2])N([*:1])C1; NMeV = CN[CH](C(=O)O)C(C)C; Sar = CNCC(=O)O
Can you answer with just one of these options? active, inactive

compound	label.class
CCC1CCC2CCCC(C)N12 (stereo unspecified)	inactive
C/C(=N\Nc1nc2ccccc2s1)c1cnccn1	inactive
Cc1cc(C)c(-n2c(-c3ccc(Br)cc3)cs/c2=N\N=C2C=C(C(C)(C)C)C(=O)C(C(C)(C)C)=C2)c(C)c1	inactive
Cc1c2oc3c(C)ccc(C(=O)NC4C(=O)NC(C(C)C)C(=O)N5CC(=O)CC5C(=O)N(C)CC(=O)N(C)C(C(C)C)C(=O)OC4C)c3nc-2c(C(=O)NC2C(=O)NC(C(C)C)C(=O)N3CC(=O)CC3C(=O)N(C)CC(=O)N(C)C(C(C)C)C(=O)OC2C)c(N)c1=O (stereo unspecified) (I: TV[X48][Sar][NMeV] / II: TV[X48][Sar][NMeV]; ester I:1-I:C, II:1-II:C; linker I:N-II:N via Actinocin(9to1); configuration not given here)	active

Which outcome did this test record for the compound COc1ccc2[nH]c3c(c2c1)[C@H](C)C[C@@H]1C(=O)N(c2ccccc2)C(=O)[C@H]31 ?
inactive

Which outcome did this test record for the compound CC(C)(C)OC(=O)N(O)CCCn1cnc2c(N)ncnc21 ?
inactive

The values you see were collected from ChEMBL document CHEMBL1201862.
